Value source: ChEMBL document CHEMBL4138215

System: Peritoneal macrophage
METHOD NOTES: Anti-inflammatory activity in ICR mouse peritoneal macrophages assessed inhibition of LPS-induced TNF-alpha production at 10 uM preincubated for 30 to 60 mins followed by LPS stimulation measured after 24 hrs by ELISA
Assay type: functional, cell-based
Calls of active or inactive are those of the source. The calls are words filed in the database; no cut-off is given here.
REPORTED METRIC: inhibition

INSERT INTO measurements (smiles, study_target, reported_metric, value_observed) VALUES
  ('COc1ccc(/C=C/C(=O)NCCc2ccccc2)cc1', 'Peritoneal macrophage', 'inhibition', 'Active'),
  ('Cc1ncsc1/C=C/C(=O)N[C@@H](Cc1ccc(O)cc1)C(=O)O', 'Peritoneal macrophage', 'inhibition', 'inactive'),
  ('COc1ccc(/C=C/C(=O)NCCc2ccccc2)cc1OCc1ccc(C)cc1', 'Peritoneal macrophage', 'inhibition', 'inactive'),
  ('Cc1ncsc1/C=C/C(=O)NCCCCc1ccccc1', 'Peritoneal macrophage', 'inhibition', 'inactive'),
  ('O=C(/C=C/c1cccnc1)NCCc1ccccc1', 'Peritoneal macrophage', 'inhibition', 'Active');

Each molecule below has a recorded value; state its inhibition.
1. Cc1ncsc1/C=C(\C#N)C(=O)NCCc1ccccc1
2. Cc1ncsc1/C=C/C(=O)N1CCC(c2ccccc2)CC1
3. COc1cc(/C=C/C(=O)NCCc2ccccc2)cc(Br)c1O
4. COc1ccc(/C=C/C(=O)NCCc2ccccc2)cc1OC
5. CCCCCCCCCCNC(=O)/C=C/c1scnc1C
6. C=CCOc1ccc(/C=C/C(=O)NCCc2ccccc2)cc1
7. COc1ccc(/C=C/C(=O)NCCc2ccccc2)cc1OCc1ccccc1
8. COc1cc(/C=C/C(=O)NCCc2ccccc2)ccc1O

["Active", "inactive", "Active", "Active", "inactive", "Active", "inactive", "Active"]

Batch lookup, inhibition per entry.
1. Cc1ncsc1/C=C/C(=O)NCCc1ccc(O)cc1
2. Cc1ccc(/C=C/C(=O)NCCc2ccccc2)s1
3. COc1cccc(/C=C/C(=O)NCCc2ccccc2)c1OC
4. COc1cc(COc2cc(/C=C/C(=O)NCCc3ccccc3)ccc2OC)cc(OC)c1
5. O=C(/C=C/c1ccc(O)cc1)NCCc1ccccc1

1. Active
2. Active
3. inactive
4. inactive
5. Active

====

Tested on: Peritoneal macrophage
METHOD NOTES: Anti-inflammatory activity in ICR mouse peritoneal macrophages assessed inhibition of LPS-induced TNF-alpha production at 10 uM preincubated for 30 to 60 mins followed by LPS stimulation measured after 24 hrs by ELISA
Assay type: functional, cell-based
Calls of active or inactive are those of the source. The calls are words filed in the database; no cut-off is given here.
REPORTED METRIC: inhibition

Examples with their reported inhibition follow.
INSERT INTO results (smiles, value_observed) VALUES
  ('O=C(/C=C/c1ccc(C(F)(F)F)cc1)NCCc1ccccc1', 'inactive'),
  ('Cc1ncsc1/C=C/C(=O)NCCc1ccc(O)c(O)c1', 'Active'),
  ('COc1cc(OC)c(OC)cc1/C=C/C(=O)NCCc1ccccc1', 'inactive'),
  ('COc1ccc(/C=C/C(=O)NCCc2ccccc2)c(OC)c1OC', 'inactive'),
  ('COc1cc(/C=C/C(=O)NCCc2ccccc2)ccc1OCc1ccccc1', 'Active'),
  ('O=C(/C=C/c1ccc(N2CCOCC2)cc1)NCCc1ccccc1', 'Active');

Each of the following entries comes with a recorded value; kindly state inhibition for each.
1. COc1cc(/C=C/C(=O)NCCc2ccccc2)ccc1OCc1ccc(C)cc1
2. Cc1ccc(/C=C/C(=O)NCCc2ccccc2)o1
3. COc1ccc2cc(CCNC(=O)/C=C/c3scnc3C)[nH]c2c1
4. COc1ccc(/C=C/C(=O)NCCc2ccccc2)cc1O
5. CCCCCCCNC(=O)/C=C/c1scnc1C
6. COc1cc(/C=C/C(=O)NCCc2ccccc2)cc(OC)c1OC
7. CCCCCCCCNC(=O)/C=C/c1scnc1C
8. Cc1ncsc1/C=C/C(=O)NCCc1cc2ccccc2[nH]1

1: Active; 2: Active; 3: inactive; 4: Active; 5: inactive; 6: Active; 7: inactive; 8: inactive

Here are 4 compounds. What values of inhibition were reported for them?
1. O=C(/C=C/c1ccc([N+](=O)[O-])cc1)NCCc1ccccc1
2. Cc1ncsc1/C=C/C(=O)N[C@@H](Cc1ccccc1)C(=O)O
3. CCCCCCCCCNC(=O)/C=C/c1scnc1C
4. O=C(/C=C/c1ccc2c(c1)OCO2)NCCc1ccccc1

1. inactive
2. inactive
3. inactive
4. Active

For every record below, what is its inhibition?
1. COc1cc(OC)c(/C=C/C(=O)NCCc2ccccc2)c(OC)c1
2. Cc1ncsc1/C=C/C(=O)NCCCc1ccccc1

1: inactive; 2: inactive
